biological target: recombinant human TFPI (tissue factor pathway inhibitor) (human, UniProt P10646 29-304); experiment: cell-based or functional assay
Listing: A405, TF/FVIIa/FX complex assay (FX 5 nM), Ab 6.25 nM of selected binders
property name: A405, TF/FVIIa/FX complex assay (FX 5 nM), Ab 6.25 nM

binder	result number
clone 1023 (antibody, V domains shown, scFv on yeast at selection; human IgG4/kappa IgG as purified) VH: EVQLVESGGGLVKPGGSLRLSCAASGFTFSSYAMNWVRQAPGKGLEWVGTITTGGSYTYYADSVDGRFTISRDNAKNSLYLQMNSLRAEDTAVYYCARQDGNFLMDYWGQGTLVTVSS VL: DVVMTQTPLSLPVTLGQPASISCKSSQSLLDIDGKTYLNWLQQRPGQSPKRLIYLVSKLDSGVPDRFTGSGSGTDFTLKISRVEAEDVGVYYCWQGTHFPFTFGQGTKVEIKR	0.056
clone 8 (antibody, V domains shown) VH: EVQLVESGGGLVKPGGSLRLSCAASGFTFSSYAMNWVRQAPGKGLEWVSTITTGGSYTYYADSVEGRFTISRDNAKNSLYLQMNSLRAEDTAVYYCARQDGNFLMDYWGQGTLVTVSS VL: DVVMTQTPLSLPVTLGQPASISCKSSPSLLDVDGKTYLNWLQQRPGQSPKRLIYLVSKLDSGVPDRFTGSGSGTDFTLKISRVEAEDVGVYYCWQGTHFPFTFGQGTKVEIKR	0.052
clone 2 (antibody, V domains shown) VH: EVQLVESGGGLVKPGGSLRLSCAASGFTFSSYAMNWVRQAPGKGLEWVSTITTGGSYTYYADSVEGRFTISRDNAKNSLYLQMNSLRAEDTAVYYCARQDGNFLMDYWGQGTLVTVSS VL: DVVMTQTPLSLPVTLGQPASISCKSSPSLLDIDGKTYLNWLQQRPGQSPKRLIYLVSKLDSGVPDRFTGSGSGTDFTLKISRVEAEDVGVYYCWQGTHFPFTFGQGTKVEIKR	0.052
clone 3 (antibody, V domains shown) VH: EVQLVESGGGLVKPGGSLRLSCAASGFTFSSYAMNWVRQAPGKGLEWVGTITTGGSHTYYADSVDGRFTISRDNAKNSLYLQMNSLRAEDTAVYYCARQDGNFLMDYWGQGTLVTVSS VL: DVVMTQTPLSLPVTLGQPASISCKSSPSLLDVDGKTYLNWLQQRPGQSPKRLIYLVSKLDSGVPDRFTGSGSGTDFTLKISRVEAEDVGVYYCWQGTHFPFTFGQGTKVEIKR	0.059
